- Target under test: PEG-3 (UniProt Q6IN02)
- Sequence (Q6IN02 whole entry, looked up): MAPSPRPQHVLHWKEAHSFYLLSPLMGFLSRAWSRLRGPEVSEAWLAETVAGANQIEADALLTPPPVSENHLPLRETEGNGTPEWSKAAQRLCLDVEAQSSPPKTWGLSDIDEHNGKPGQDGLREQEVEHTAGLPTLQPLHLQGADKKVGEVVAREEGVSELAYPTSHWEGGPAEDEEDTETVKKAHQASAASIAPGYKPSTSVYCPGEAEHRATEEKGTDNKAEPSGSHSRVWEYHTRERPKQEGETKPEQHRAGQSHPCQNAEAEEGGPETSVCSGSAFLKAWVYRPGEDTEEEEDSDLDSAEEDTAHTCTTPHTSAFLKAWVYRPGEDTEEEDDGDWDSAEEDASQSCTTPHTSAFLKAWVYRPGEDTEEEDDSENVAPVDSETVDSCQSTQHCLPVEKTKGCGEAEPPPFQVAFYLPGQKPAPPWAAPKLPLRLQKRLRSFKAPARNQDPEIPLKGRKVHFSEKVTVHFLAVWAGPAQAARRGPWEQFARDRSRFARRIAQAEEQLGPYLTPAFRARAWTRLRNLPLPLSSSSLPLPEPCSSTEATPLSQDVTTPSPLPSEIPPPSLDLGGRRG
- Test method notes: Peg3 promoter luciferase inhibitors, potency, dose response, cell-based, HeLa, CREF/GAPDH counter-screen panel (AID 624167)
- Condition info: HeLa PEG-Prom luciferase reporter, overnight, CREF/GAPDH counter-screens, mean of runs
Calls of active or inactive are those of the source.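 The calls were made as follows: active = mean IC50 for reducing PEG3 promoter reporter signal at or below a set limit, with IC50 above the limit in both counter screens; inactive = the rest, including counter screen hits.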
// classify into active, inactive

Solved cases below.
[[record]]
compound = "C=CCn1c(C)cc(C2=NNC(=NCC)SC2)c1C"
category_label = "active"

[[record]]
compound = "O=C(c1ccco1)N1CCN(c2ncnc3c2[nH]c2ccc(Br)cc23)CC1"
category_label = "inactive"

[[record]]
compound = "Cc1cccc(C)c1-n1nnnc1C(c1ccccc1OC(F)(F)F)N1CCC(n2c(=O)[nH]c3ccccc32)CC1 (stereo not given)"
category_label = "active"

[[record]]
compound = "O=C(/C=C/c1cc(Br)ccc1O)c1ccco1"
category_label = "active"


Note: attention shifts to another entry.
Kindly provide the recorded test outcome for the following compound: O=C(C(=O)N(Cc1ccccc1)Cc1ccccc1)c1c(-c2ccccc2)[nH]c2ccccc12
inactive

---

- Test system: PEG-3
- Test method notes: Peg3 promoter luciferase inhibitors, potency, dose response, cell-based, HeLa, CREF/GAPDH counter-screen panel (AID 624167)
- Condition info: HeLa PEG-Prom luciferase reporter, overnight, CREF/GAPDH counter-screens, run 1, dose range 1, individual replicate IC50 per panel
For each record, check the reported IC50: if it is below 20 µM write condition met, else write condition not met.

The examples below pair each entry with its known result.
[[record]]
compound = "COc1ccc(-c2cc(C(=O)Nc3ccccc3N3CCOCC3)c3ccccc3n2)cc1OC"
target_under_test = "PEG-3"
category_label = "condition not met"

[[record]]
compound = "COc1ccccc1CNCC(O)Cn1c2ccccc2c2ccccc21 (configuration not stated)"
target_under_test = "PEG-3"
category_label = "condition met"


In the following, a different compound is considered.
# strict comparison: is reported IC50 < 20 µM? input = CC1=CC2OC3CC4OC(=O)C=CC=CC(C(C)O)OCC(O)C(C)CC(=O)OCC2(CC1O)C4(C)C31CO1 (configuration not stated)
condition met

---

- Tested on: Rat fibroblasts (CREF)
- Test method notes: Peg3 promoter luciferase inhibitors, potency, dose response, cell-based, HeLa, CREF/GAPDH counter-screen panel (AID 624167)
- Condition info: CREF/GAPDH counter-screens, mean of runs
The source made the active and inactive calls.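 How the source made its calls: active means mean IC50 for reducing PEG3 promoter reporter signal at or below a set limit, with IC50 above the limit in both counter screens; inactive means the rest, including counter screen hits.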
// one of yes (1) for active, no (0) for inactive, no free text

Example entries begin here.
[[record]]
compound = "COc1ccc(NC(=O)c2cc(-c3ccccn3)nc3ccccc23)cc1S(=O)(=O)N(C)C"
category_label = "no (0)"

[[record]]
compound = "Cc1cccc(C)c1NC(=O)c1nc(S(=O)(=O)Cc2ccccc2)ncc1Cl"
category_label = "yes (1)"

[[record]]
compound = "O=C(NC1=NCCS1)C1COc2ccccc2O1 (stereo not drawn)"
category_label = "yes (1)"

[[record]]
compound = "O=C(O)c1cccc(COc2ccc(CO)cc2Cl)c1"
category_label = "yes (1)"

[[record]]
compound = "Brc1ccc(N/N=C(/N=Nc2nn[nH]n2)c2ccccc2)cc1"
category_label = "yes (1)"

[[record]]
compound = "CCCC(=O)NC(c1ccc(OC)cc1)c1ccc2cccnc2c1O (stereo not drawn)"
category_label = "no (0)"

[[record]]
compound = "Cc1cc(C(=O)CN2C(=O)c3ccccc3S2(=O)=O)c(C)n1-c1ccccc1"
category_label = "yes (1)"

[[record]]
compound = "CCCCCCCNC(=O)C1(CC2CC(c3cccc(Br)c3)=NO2)CCNCC1 (stereo not drawn)"
category_label = "yes (1)"

[[record]]
compound = "C=CCn1c(C)cc(C(=O)COc2ccc(C)nc2[N+](=O)[O-])c1C"
category_label = "no (0)"

[[record]]
compound = "COc1ccc(N(C(=O)CCl)C(C(=O)NC2CCCCC2)c2cccnc2)cc1 (stereo not drawn)"
category_label = "yes (1)"


Entry CCCOc1ccc2cc(-c3ccccn3)c(=O)oc2c1 : call = ?
yes (1)

Then this compound: C/C(=N\NC(=O)c1n[nH]c2c1CCC2)c1cccs1
yes (1)

// same read-out, input: CCCC(=O)NC(c1ccc(N(C)C)cc1)c1ccc2cccnc2c1O (stereo not drawn)
no (0)

Then COc1ccc(-n2cc(-c3ccccc3)c3c(N4CCOCC4)ncnc32)cc1 ?
no (0)

// same read-out, input: CCCCC(=O)NC(c1ccccc1)c1ccc2cccnc2c1O (stereo not drawn)
no (0)

Follow-up item: Cc1ccc(NC(=S)NC(=O)c2ccc(F)cc2)cc1S(=O)(=O)Nc1ccccc1Cl
no (0)
